// reported yeast fitness for each item listed
B1: tRNA (parent)
chain: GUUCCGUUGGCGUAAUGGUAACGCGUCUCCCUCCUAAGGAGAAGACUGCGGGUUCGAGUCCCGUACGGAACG

- Variants of: B1
- Test summary: yeast fitness relative to wild type (ratio to wild type); higher = fitter; tRNA-Arg(CCU), competitive growth, 37 C, YPD
Fewer inactive variants are shown than the library holds.
Give the figure by itself; no unit, no explanation.

For orientation, consider the following solved cases.
> print(dat)
                              item.sequence  readout.label  observed.value
1  GUUCCGUUGGGGUAAUGGUAACGCGUCCCCCUCCUAAGGAGAAGACUGCGGGUUCGAGUCCCGUACGGAACG [C11G U28C]  yeast fitness           0.653
2  GUUCCGUUGGUGUAAUGGUAACGCGUCUCCCUCCUAAGGAGAUGACUGCGGGUUCGAGUCCCGUAUGGAACG [C11U A43U C66U]  yeast fitness           0.555
3  GUUCCGUUGGCGUAAUGGUAAUGCGUCUACCUCCUAAGGAGAAGACUGCGGGUUCGAGUCCCGUACGACACG [C22U C29A G68A A69C]  yeast fitness            0.55
4  GUUCCGUUGGCGUAAUGGUAACGCGUCUCGCUGCUAAGGAGAAGACUCCGGGUUCGAGUACCGUACGGAACG [C30G C33G G48C C60A]  yeast fitness           0.586
5  GUUUCGUUGGCGUAAUGGUAGCGCGUCUCCCUCCUAAGGAGAAGACUGCGGGUUCGAGUCCCGUACGGAACG [C4U A21G]  yeast fitness             1.1
6  GUUCCGUUGGCGUAAUGGUAACGCGUCUCCCUCCUUAGGAGAAGACUGCGGGUUCGAGUCCCGUACGCAACG [A36U G68C]  yeast fitness           0.698

Please look at this variant and report its yeast fitness: GUUCCGUUGGCGCAAUGGUAACGCGUCUCCCUCCUAAGGAGAAGACUGCGGGUUCGAGUCCCGUACGGUACG [U13C A69U]
1.07

For the variant GUUCCGUUGGCGGAAUGGUAACGCGUCUCCCUCCUAAGGAGAAGAUUGCGGGUUCGAGUCCCGUGCGGAACG [U13G C46U A65G] , give its measured yeast fitness value.
0.773

Please list yeast fitness recorded for the variant GUUCCGUUGCCGUAAUGGUAACGCGUCUCCCUCCUAAGGAGAAGACUGCGGGUUCGAGUCCCGUACGGAUCG [G10C A70U]
0.75

Where do these numbers come from? They come from the RNAGym collection of RNA variant scans (doi:10.1126/science.aae0568).
